- Assay system: Beta-2 adrenergic receptor (Homo sapiens)
- Sequence (P07550 whole entry): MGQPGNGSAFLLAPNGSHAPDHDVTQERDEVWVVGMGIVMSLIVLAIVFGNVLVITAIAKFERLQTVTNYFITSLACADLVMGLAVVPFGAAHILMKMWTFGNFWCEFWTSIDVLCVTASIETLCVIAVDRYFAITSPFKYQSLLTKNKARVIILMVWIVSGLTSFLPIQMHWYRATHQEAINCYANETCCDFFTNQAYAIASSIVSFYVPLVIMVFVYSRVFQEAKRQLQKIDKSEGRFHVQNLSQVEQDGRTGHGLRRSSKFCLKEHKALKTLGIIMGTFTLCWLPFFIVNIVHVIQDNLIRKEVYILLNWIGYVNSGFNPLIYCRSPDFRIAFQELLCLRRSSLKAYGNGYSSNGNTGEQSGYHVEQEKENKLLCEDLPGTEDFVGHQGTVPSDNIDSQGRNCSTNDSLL
- Experiment description: beta2AR agonists driving receptor internalization, dose response, cell-based, FAP fluorogen, flow cytometry, cherry pick 1 (AID 588763)
- Format: functional
Activity calls are given as the source filed them. How the calls were made is not given here.
Permitted responses: active, inactive

Known results for molecules:
>  <Molecule>
CCCCC(=O)Nc1ccc(C(=O)N2CCCC(C(=O)OCC)C2)cc1 (stereo not given)

>  <Group>
active

$$$$
>  <Molecule>
COc1cc(CNCCc2c[nH]c3ccccc23)ccc1OCc1ccc(F)cc1

>  <Group>
inactive

$$$$
>  <Molecule>
O=C(CCCCCn1c(=S)[nH]c2ccccc2c1=O)NCc1ccc2c(c1)OCO2

>  <Group>
active

$$$$
>  <Molecule>
CCCCOc1cccc(C(=O)Nc2ccc(NC(=O)c3ccco3)cc2)c1

>  <Group>
active

$$$$

Could you now consider this next molecule?
QUERY: Please state the recorded outcome for this molecule: COc1ccc(C2/C=C\CN(Cc3ccc(N(C)C)cc3)CC(=O)N2Cc2ccc(F)cc2)cc1 (stereo not given)
RESULT: active

Data origin: ChEMBL document CHEMBL1201862
